System: ATCC 35837 Ethambutol Resistant
Test: microbe, parasite or virus in culture
Format: cell-based
Details: Mycobacterium tuberculosis, ATCC35837, read-out: MIC Value, ATCC 35837 Ethambutol Resistant
Answer each item with its documented MIC.
Field format: number, assumed µg/mL, no unit text.

I have this molecule here, CC1COc2c(N3CCN(C(=N)NC#N)CC3)c(F)cc3c(=O)c(C(=O)O)cn1c23 (stereo not shown) [BVS-60C (XVII)] , and I need its recorded MIC. 0.625

Requested read-out: MIC. Entry: C[C@@H]1COc2c(N3CCN(C(=N)NC(=N)NCCCCCCNC(=N)NC(=N)N4CCN(c5c(F)cc6c(=O)c(C(=O)O)cn7c6c5OC[C@@H]7C)CC4)CC3)c(F)cc3c(=O)c(C(=O)O)cn1c23 [BVS-85A (XVII)] 1.25
